Entries and their T50 values in SIF, PAA/Car
- Assay Comment: In vitro dissolution (drug release) from 400 mg matrix tablets, USP apparatus II, SGF or SIF
- Format: physicochemical
- Settings: PAA/Carrageenan (1:1) formulation, 25% of active, SIF
Counter-ions that a name gives are not always drawn.
When you answer, write just the number.

Entry COc1ccc([C@@H]2Sc3ccccc3N(CCN(C)C)C(=O)[C@@H]2OC(C)=O)cc1 [Diltiazem HCl] — recorded T50 values in SIF, PAA/Car = 21

====

- Assay Comment: In vitro dissolution (drug release) from 400 mg matrix tablets, USP apparatus II, SGF or SIF
- Assay type: physicochemical
- Settings: 1:1.5 PAA/PEO, modified SGF
Where a name gives a salt, the structure may show the parent alone.
Property: T50 in SGF (h)
Give your result in h as a bare value.

The following molecules have reported results that may help.
- Molecule: "CC(C[N+](C)(C)C)OC(N)=O (stereo not shown) [Bethanechol Chloride]"
  Property: "T50 in SGF"
  Readout Number: 24
- Molecule: "COc1cccc(C2(O)CCCCC2CN(C)C)c1 (stereo not shown) [Tramadol HCl]"
  Property: "T50 in SGF"
  Readout Number: 8
- Molecule: "C[N+](C)(C)CC(=O)O [Betaine Hydrochloride]"
  Property: "T50 in SGF"
  Readout Number: 4

Here is another molecule to look at.
Entry COc1ccc([C@@H]2Sc3ccccc3N(CCN(C)C)C(=O)[C@@H]2OC(C)=O)cc1 [Diltiazem HCl] — recorded T50 in SGF = 8

====

- Assay Comment: In vitro dissolution (drug release) from 400 mg matrix tablets, USP apparatus II, SGF or SIF
- Assay type: physicochemical
- Settings: PAA/Carrageenan (1:1) formulation, 25% of active, SIF
Counter-ions that a name gives are not always drawn.
Entries and their T50 values in SIF, PAA/Car

The following molecules have reported results that may help.
- Molecule: "Cc1ncc(C[n+]2csc(CCO)c2C)c(N)n1 [Thiamine HCl]"
  T50 values in SIF, PAA/Car: 7.5
- Molecule: "CNC(=C[N+](=O)[O-])NCCSCc1ccc(CN(C)C)o1 [Ranitidine HCl]"
  T50 values in SIF, PAA/Car: 15
- Molecule: "CN(C)CCOC(C)(c1ccccc1)c1ccccn1 (stereo not shown) [Doxylamine Succinate]"
  T50 values in SIF, PAA/Car: 22
- Molecule: "CNS(=O)(=O)CCc1ccc2[nH]cc(C3CCN(C)CC3)c2c1 [Naratriptan HCl]"
  T50 values in SIF, PAA/Car: 25
- Molecule: "CCCCOc1cc(C(=O)OCCN(CC)CC)ccc1N [Benoxinate HCl]"
  T50 values in SIF, PAA/Car: 23
- Molecule: "CCOc1ccccc1OCCN[C@H](C)Cc1ccc(OC)c(S(N)(=O)=O)c1 [Tamsulosin HCl]"
  T50 values in SIF, PAA/Car: 25

Here is another molecule to look at.
Entry CN(C)CCOC(c1ccccc1)c1ccccc1 [Diphenhydramine HCl] — recorded T50 values in SIF, PAA/Car = 8
